Each recorded value in this set is attributed to the supplement of paper PMC9112550.

System: Escherichia coli TOP10;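 further: peptides expressed intracellularly from a pBAD plasmid library in pooled LB shake-flask culture, induced with 0.3% L-arabinose, DNA abundance read by NGS, three biological replicates, DESeq2 with apeglm shrinkage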
test.description: shrunken log2 fold change of peptide-encoding DNA abundance (4.5 h post-induction vs induction); higher = less antimicrobial activity (less host growth inhibition)
condition.details: time post-induction: 4.5 h; library: site-saturation at positions 5, 18, 19, 20
Respond with rule met for shrunken log2 fold change values of 0.1 and above, rule not met for values below.

Below, 10 sequences whose answers are already recorded.
ordered.residues: RRIRRRPPRLPRPRPRPNNSPRP
discrete.label: rule not met
//
ordered.residues: RRIRERPPRLPRPRPRPSHDPRP
discrete.label: rule not met
//
ordered.residues: RRIRSRPPRLPRPRPRPKVNPRP
discrete.label: rule not met
//
ordered.residues: RRIRYRPPRLPRPRPRPHRMPRP
discrete.label: rule not met
//
ordered.residues: RRIRHRPPRLPRPRPRPHPPPRP
discrete.label: rule met
//
ordered.residues: RRIRSRPPRLPRPRPRPMYRPRP
discrete.label: rule not met
//
ordered.residues: RRIRLRPPRLPRPRPRPCAQPRP
discrete.label: rule not met
//
ordered.residues: RRIRFRPPRLPRPRPRPFYDPRP
discrete.label: rule not met
//
ordered.residues: RRIRGRPPRLPRPRPRPHDMPRP
discrete.label: rule not met
//
ordered.residues: RRIRWRPPRLPRPRPRPWNKPRP
discrete.label: rule not met

Request: Form field: shrunken log2 fold change at least 0.1? Entry: RRIRNRPPRLPRPRPRPCFAPRP
Result: rule not met

Request: Form field: shrunken log2 fold change at least 0.1? Entry: RRIRERPPRLPRPRPRPRWAPRP
Result: rule met

Request: Form field: shrunken log2 fold change at least 0.1? Entry: RRIRNRPPRLPRPRPRPGPAPRP
Result: rule met
